Target: VEGF
Sequence (P15692 whole entry): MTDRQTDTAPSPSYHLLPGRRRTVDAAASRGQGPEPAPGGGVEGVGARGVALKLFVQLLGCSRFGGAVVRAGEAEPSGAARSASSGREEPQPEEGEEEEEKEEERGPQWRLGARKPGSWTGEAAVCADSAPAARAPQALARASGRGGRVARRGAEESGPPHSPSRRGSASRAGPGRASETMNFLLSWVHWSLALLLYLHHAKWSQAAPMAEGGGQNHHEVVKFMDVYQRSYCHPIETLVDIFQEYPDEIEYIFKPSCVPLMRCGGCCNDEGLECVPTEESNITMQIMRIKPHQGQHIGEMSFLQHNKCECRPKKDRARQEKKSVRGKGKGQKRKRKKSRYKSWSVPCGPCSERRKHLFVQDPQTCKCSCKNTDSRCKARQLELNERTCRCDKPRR
Assay: cell-based or functional assay
# HUVEC Erk phosphorylation, % inhibition per record follows
measured-quantity: HUVEC Erk phosphorylation, % inhibition (%)

{"binder": "VEGFBII023 (VHH, not shown: small tags and cut ends) EVQLVESGGGLVQTGDSLRLSCEVSGRTFSSYSMGWFRQAQGKEREFVVAISKGGYKYDSVSLEGRFTISKDNAKNTVYLQINSLKPEDTAVYYCASSRAYGSSRLRLADTYEYWGQGTQVTVSSGGGGSGGGGSGGGGSGGGGSGGGGSGGGGSGGGGSGGGGSEVQLVESGGGLVQAGGSLRLSCAASGRTFSNYAMGWFRQAPGKERVLVADISSSGINTYVADAVKGRFTISRDNAKNTVYLQMNSLKPEDTAVYYCAASAWWYSQMARDNYRYWGQGTQVTVSS", "measured-quantity": "HUVEC Erk phosphorylation, % inhibition", "recorded-number": 100}
{"binder": "VEGFBII022 (VHH, not shown: small tags and cut ends) EVQLVESGGGLVQTGDSLRLSCEVSGRTFSSYSMGWFRQAQGKEREFVVAISKGGYKYDSVSLEGRFTISKDNAKNTVYLQINSLKPEDTAVYYCASSRAYGSSRLRLADTYEYWGQGTQVTVSSGGGGSGGGSEVQLVESGGGLVQPGGSLRLSCVASGIRFMSMAWYRQAPGKHRELVARISSGGTTAYVDSVKGRFTISRDNSKNTVYLQMNSLKAEDTAVYYCNTFSSRPNPWGAGTQVTVSS", "measured-quantity": "HUVEC Erk phosphorylation, % inhibition", "recorded-number": 94}
